- ASSAY_EXPLANATION: AUC (0 to 24 hrs) in Sprague-Dawley rat at 3 mg/kg, po by LC/MS/MS analysis
- Assay type: ADME, organism-based
- Design: time < 24 hr, dose 3 mg/kg, route oral
- PROTOCOL_CONDITIONS: plasma
PROPERTY_LABEL: AUC(0-t) at 24 h (µM·h)
Provide the reading as a plain figure in µM·h.

For N[C@@]1(C(=O)O)C[C@@H](F)[C@H]2[C@H](C(=O)O)[C@H]21 , what is its reported AUC(0-t) at 24 h?
10.7

###

- ASSAY_EXPLANATION: AUC (0 to 24 hrs) in Sprague-Dawley rat at 10 mg/kg, po by LC/MS/MS analysis
- Assay type: ADME, organism-based
- Set-up: time < 24 hr, dose 10 mg/kg, route oral
- PROTOCOL_CONDITIONS: plasma
PROPERTY_LABEL: AUC(0-t) at 24 h (µM·h)
Provide the reading as a plain figure in µM·h.

For N[C@@]1(C(=O)O)C[C@@H](F)[C@H]2[C@H](C(=O)O)[C@H]21 , what is its reported AUC(0-t) at 24 h?
23.6
